biological target: human V1a receptor (Homo sapiens, UniProt P37288); construct: expressed in transfected cells; host or cells: HEK293 cells, transiently transfected; membrane preparation; assay: V1a activity: human V1a receptor binding (3H-Vasopressin SPA, HEK293 membranes); conditions: membranes of HEK293 cells transiently transfected with human V1a receptor, Ki by Cheng-Prussoff equation, read-out: pKi hV1a (converted)
Sequence (P37288 whole entry): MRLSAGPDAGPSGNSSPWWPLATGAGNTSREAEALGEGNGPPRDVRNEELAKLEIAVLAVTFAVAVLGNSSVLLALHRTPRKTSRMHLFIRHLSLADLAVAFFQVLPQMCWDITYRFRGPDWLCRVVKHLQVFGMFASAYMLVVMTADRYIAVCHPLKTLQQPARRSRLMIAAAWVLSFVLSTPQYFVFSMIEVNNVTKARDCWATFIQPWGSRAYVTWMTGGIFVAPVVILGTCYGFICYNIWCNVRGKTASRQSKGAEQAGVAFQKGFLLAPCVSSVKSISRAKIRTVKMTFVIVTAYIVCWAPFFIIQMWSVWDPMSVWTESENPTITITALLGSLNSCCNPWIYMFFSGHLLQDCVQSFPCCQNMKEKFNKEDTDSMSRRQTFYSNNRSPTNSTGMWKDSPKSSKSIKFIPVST
RECORDED_METRIC: log10(Ki) (log10 of the value in nM)
Scale: log10; quantity: Ki; unit before log: nM

Please review the following examples before continuing.
Param item: O=C1OC2(CCN(C(=O)c3ccc(Cl)c(Cl)c3)CC2)c2ccccc21 [Example 6] ; param system: human V1a receptor (Homo sapiens, UniProt P37288); output log10(Ki): 1.28

Reading of log10(Ki) for CC(C)(C)c1ccc(C(=O)N2CCC3(CC2)OCc2ccccc23)cc1 [Example 25] with human V1a receptor (Homo sapiens, UniProt P37288): 1.80

The recorded log10(Ki) with human V1a receptor (Homo sapiens, UniProt P37288) for O=C1OC2(CCN(C(=O)c3ccc(Cl)c(Cl)c3)CC2)c2cc(OCCO)ccc21 [Example 12] was 1.34

Measured log10(Ki) for this entry COc1ccc2c(c1)C(=O)OC21CCN(C(=O)c2ccc(Cl)c(Cl)c2)CC1 [Example 9] on human V1a receptor (Homo sapiens, UniProt P37288): 1.68

Further cases:
O=C(c1ccc2ccccc2c1)N1CCC2(C=Cc3ccccc32)CC1 [Example 36] tested on human V1a receptor (Homo sapiens, UniProt P37288) gave log10(Ki): 1.95

Ref: patent US20080153862A1
